- Test system: HL-60(TB) leukemia
- ASSAY_DETAILS: NCI tumour cell line growth inhibition, 48 h
Below, each entry is listed alongside its reported TGI.

{"columns": ["MOLECULE", "TGI"],
 "data": [
  ["COc1ccc2c(O)c1-c1c(OC)ccc(c1O)SSc1ccc(OC)c(c1O)-c1c(OC)ccc(c1O)SS2", "> 100 µM"],
  ["COC(=O)c1cc(O)ccc1O", "> 100 µM"],
  ["Cc1cc(C)c(NS(=O)c2ccc(Cl)cc2)c(C)c1 (stereo unspecified)", "> 100 µM"],
  ["O=C1CSC(c2ccccc2)N1c1ccc(-c2ccc(-n3c(-c4ccccc4)nc4ccccc4c3=O)cc2)cc1 (stereo unspecified)", "> 100 µM"],
  ["COc1ccc(S(=O)(=O)N/N=C(\\C)CN2C(=O)c3ccccc3C2=O)cc1OC", "> 100 µM"],
  ["CC1(C)CC(=O)c2c(-c3ccc(Cl)cc3)c(C#N)c(=S)n(C3OC(CO)C(O)C(O)C3O)c2C1 (stereo unspecified)", "> 100 µM"],
  ["CC(C)N(C(C)C)S(=O)(=O)CC12CCC(C/C1=N\\O)C2 (stereo unspecified)", "> 100 µM"],
  ["CS(=O)(=O)N1CCC(Nc2ncc(C(=O)c3c(F)cccc3F)c(N)n2)CC1", "> 25 µM"],
  ["CC1=C2CC[C@@]3(C)C(=CCC3O)C2(C)CCC1=O (stereo partly specified)", "> 100 µM"],
  ["COc1ccc(C[C@H]2COC(=O)[C@@H]2Cc2ccc(Br)cc2)cc1OC", "> 61.6 µM"],
  ["O=C(c1ccccc1)c1ccc(N2C(=O)/C(=C/c3ccccc3S)N=C2c2ccccc2)c(N2C(=O)/C(=C/c3ccccc3S)N=C2c2ccccc2)c1", "> 100 µM"]
]}
